target: Recombinant JAK2 (Homo sapiens, UniProt O60674)
Construct: purchased Carna Biosciences
Sequence (O60674 whole entry): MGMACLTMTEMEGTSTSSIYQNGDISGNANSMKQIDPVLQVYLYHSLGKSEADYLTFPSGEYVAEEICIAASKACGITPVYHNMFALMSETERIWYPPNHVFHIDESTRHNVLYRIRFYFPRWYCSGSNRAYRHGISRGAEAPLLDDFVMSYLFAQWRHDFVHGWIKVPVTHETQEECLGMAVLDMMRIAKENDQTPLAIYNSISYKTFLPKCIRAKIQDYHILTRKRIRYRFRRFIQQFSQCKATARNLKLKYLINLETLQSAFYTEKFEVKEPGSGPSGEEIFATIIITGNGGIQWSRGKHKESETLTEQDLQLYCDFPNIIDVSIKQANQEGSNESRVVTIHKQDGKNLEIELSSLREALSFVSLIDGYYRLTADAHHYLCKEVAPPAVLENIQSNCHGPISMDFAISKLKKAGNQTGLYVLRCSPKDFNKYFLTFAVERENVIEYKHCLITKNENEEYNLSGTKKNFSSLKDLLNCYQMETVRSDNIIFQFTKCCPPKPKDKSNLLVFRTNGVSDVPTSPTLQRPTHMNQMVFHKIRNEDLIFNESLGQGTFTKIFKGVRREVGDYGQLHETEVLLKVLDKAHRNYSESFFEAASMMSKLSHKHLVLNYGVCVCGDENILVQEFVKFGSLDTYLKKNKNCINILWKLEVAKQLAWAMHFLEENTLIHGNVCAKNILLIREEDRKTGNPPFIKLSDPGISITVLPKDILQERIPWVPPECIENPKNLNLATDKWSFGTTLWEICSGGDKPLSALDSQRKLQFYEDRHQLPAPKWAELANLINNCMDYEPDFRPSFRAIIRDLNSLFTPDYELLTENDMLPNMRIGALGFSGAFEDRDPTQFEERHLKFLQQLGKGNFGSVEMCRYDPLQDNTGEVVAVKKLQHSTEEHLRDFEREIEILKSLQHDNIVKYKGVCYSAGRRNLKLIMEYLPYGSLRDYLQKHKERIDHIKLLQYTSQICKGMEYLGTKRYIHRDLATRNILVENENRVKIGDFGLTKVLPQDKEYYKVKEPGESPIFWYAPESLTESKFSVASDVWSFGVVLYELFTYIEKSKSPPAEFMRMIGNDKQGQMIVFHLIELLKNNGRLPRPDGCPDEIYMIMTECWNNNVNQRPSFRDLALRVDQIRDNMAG
assay.protocol: JAK biochemical assay (LANCE Ultra TR-FRET), JAK2
conditions: recombinant JAK2, TR-FRET; read-out: Biochemical Assay (μM) JAK2
Protocol: Recombinant JAK1, JAK2, JAK3 and TYK2 (Carna Biosciences) were used to develop biochemical assays in 50 mM HEPES pH 7.5, 1 mM EGTA, 10 mM MgCl2, 2 mM DTT and 0.01% Tween-20. […] The intensity of the light emission is proportional to the level of ULight substrate phosphorylation. Compounds which interfere with JAK enzyme activity show a lesser substrate phosphorylation and values are projected in terms of % inhibition in comparison to vehicle control.
assay.endpoint: IC50

Query: Entry O=C(Nc1ccc(-c2ccnc3[nH]c(=O)[nH]c23)cc1)N1CCOCC1 needs its IC50 filled in; supply it.
Response: > 1 µM

Query: Input OC(c1ccc(-n2cc(-c3ccnc4[nH]cnc34)cn2)nc1)(C1CCNCC1)C(F)(F)F (stereo not shown) , output reported IC50.
Response: < 0.1 µM

Query: Input N#CC1CCN(C(=O)n2cc(-c3ccnc4[nH]cnc34)cn2)CC1 , output reported IC50.
Response: > 0.5 µM

Query: Determine from records and report IC50 for N#CC1CCN(C(=O)n2cc(-c3ccnc4[nH]c(=O)[nH]c34)cn2)C1 (stereo not shown)
Response: < 0.5 µM
